target: human iGluR4 (Homo sapiens, UniProt P48058); assay: Whole-cell voltage clamp potentiation of glutamate-evoked current in HEK293 cells stably expressing human iGluR4; conditions: whole-cell voltage clamp at −60 mV, potentiation of current evoked by 1 mM glutamate, Hill equation fit
Sequence (P48058 21-902): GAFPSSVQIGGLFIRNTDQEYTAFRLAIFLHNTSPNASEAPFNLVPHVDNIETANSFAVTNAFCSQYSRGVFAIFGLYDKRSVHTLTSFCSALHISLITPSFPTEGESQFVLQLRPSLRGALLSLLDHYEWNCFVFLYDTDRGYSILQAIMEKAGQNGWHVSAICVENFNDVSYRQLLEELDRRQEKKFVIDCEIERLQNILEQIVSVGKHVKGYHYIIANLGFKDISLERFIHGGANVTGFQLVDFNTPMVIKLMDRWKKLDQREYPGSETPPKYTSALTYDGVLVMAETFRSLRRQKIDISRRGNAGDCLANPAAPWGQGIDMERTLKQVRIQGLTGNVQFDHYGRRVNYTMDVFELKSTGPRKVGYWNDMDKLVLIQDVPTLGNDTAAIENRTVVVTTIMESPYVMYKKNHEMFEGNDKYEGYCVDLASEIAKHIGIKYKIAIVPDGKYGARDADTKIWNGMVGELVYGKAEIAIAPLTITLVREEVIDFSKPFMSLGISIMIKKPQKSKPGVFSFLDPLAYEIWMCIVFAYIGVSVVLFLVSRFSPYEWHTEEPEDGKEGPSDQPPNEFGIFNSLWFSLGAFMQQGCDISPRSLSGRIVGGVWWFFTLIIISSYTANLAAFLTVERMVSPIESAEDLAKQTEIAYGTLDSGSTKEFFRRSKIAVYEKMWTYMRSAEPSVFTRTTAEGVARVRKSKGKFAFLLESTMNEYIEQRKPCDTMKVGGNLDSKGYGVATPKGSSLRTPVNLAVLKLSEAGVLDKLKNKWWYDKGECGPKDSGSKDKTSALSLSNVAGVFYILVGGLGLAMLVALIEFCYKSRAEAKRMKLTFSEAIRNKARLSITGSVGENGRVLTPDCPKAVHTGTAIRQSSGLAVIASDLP
reported_endpoint: pEC50
Give bare numbers, as −log10 of the molar value.

Example entries begin here.
CC(C)S(=O)(=O)Nc1cnccc1-c1ccc(-c2ccc(C(=O)O)cc2C#N)cc1 [Example 51] :: 5.61
CC(C)S(=O)(=O)Nc1ccsc1-c1ccc(-c2ccc(C(=O)O)cc2C#N)cc1 [Example 72] :: 6.73

// recorded pEC50 for CC(C)S(=O)(=O)Nc1ccsc1-c1ccc(-c2cc(F)c(O)c(F)c2)cc1 [Example 11] : 6.14
